system: RARg homodimer (NR concentration 270 nM); test: PBM binding z-score (relative to random genomic background probes); higher = stronger binding; sequences stand for … in GC…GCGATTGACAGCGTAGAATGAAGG
Binary classification by PBM binding z-score, with 2 as an inclusive lower bound for 1; all other cases are 0.

Data request: Does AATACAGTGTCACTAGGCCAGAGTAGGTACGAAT have a reported PBM binding z-score of at least 2?
Data returned: 0

Data request: Follow-up entry: ATCTCTAGGTAAAAGTTCCGTGAATCCCGAGGAT
Data returned: 0

Data request: What do you have for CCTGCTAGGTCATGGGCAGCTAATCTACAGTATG ?
Data returned: 1

Data request: Can you check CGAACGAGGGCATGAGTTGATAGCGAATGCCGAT next?
Data returned: 0

Data request: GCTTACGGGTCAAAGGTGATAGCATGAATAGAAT , same question.
Data returned: 1

Data request: Then this sequence: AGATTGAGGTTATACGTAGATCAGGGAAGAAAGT
Data returned: 0

Data request: Then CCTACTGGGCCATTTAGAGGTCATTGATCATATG ?
Data returned: 1

Data request: Then what about the sequence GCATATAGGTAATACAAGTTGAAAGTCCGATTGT ?
Data returned: 0

Data request: // repeat for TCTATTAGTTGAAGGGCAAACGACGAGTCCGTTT and report
Data returned: 0

Data request: Similarly, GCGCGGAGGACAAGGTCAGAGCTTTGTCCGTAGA ?
Data returned: 1

Data request: Again, but for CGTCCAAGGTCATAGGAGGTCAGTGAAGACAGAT
Data returned: 1

###

system: PXR:RXRa (NR concentration 270 nM, RXRa partner concentration 90 nM); assay: PBM binding z-score (relative to random genomic background probes); higher = stronger binding; sequences stand for … in GC…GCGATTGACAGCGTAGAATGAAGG
Property name: PBM binding z-score
The answer should be written as a number, with no unit following it.

Data request: # lookup: PBM binding z-score of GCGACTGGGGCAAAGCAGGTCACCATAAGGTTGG
Data returned: 3.05

Data request: Again, but for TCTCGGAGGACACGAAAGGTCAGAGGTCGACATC
Data returned: 5.34

Data request: Let us now turn to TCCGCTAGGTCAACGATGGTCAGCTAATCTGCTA
Data returned: 1.19

Data request: Entry to check: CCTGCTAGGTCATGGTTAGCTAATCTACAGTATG
Data returned: 1.38

Data request: Same read-out for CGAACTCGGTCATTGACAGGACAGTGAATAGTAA ?
Data returned: 0.137

Data request: // query: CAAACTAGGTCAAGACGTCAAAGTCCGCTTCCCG
Data returned: 1.24

Data request: Proceed to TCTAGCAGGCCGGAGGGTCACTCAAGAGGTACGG
Data returned: 0.98

Data request: Next record, please: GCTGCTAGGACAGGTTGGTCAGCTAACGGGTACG
Data returned: -0.739

Data request: Now consider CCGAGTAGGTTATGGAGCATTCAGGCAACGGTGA and answer again.
Data returned: -0.208

Data request: Proceed to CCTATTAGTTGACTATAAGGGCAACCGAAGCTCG
Data returned: 0.229

Data request: Same for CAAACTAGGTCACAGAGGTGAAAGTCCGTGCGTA
Data returned: 3.51

Data request: For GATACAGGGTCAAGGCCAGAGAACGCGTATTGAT then?
Data returned: 3.71

###

test system: RARa:RXR (NR concentration 270 nM, RXRa partner concentration 90 nM); assay: PBM binding z-score (relative to random genomic background probes); higher = stronger binding; sequences stand for … in GC…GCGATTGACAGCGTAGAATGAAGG
If the reported PBM binding z-score equals or exceeds 3, assign yes (1). If not, assign no (0).

Data request: Has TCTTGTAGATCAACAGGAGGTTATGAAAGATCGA a recorded PBM binding z-score greater than or equal to 3?
Data returned: no (0)

Data request: Another sequence to look at: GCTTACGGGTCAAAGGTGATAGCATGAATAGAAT
Data returned: yes (1)

Data request: Now try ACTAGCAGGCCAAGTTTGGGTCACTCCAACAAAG .
Data returned: no (0)

Data request: Also check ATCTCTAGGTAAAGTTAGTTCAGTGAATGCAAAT
Data returned: no (0)

Data request: And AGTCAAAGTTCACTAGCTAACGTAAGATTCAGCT ?
Data returned: no (0)

Data request: Can you handle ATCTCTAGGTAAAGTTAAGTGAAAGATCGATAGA next?
Data returned: no (0)

Data request: Next record, please: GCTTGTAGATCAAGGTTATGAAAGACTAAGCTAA
Data returned: no (0)

Data request: What about this sequence? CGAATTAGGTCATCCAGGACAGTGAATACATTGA
Data returned: no (0)

Data request: Similarly, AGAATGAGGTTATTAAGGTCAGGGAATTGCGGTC ?
Data returned: yes (1)

Data request: For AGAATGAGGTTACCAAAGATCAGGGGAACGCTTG then?
Data returned: no (0)

Data request: What do you have for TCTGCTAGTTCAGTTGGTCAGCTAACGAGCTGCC ?
Data returned: no (0)

Data request: Follow-up item: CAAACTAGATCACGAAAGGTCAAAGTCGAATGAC
Data returned: yes (1)

Data request: // next record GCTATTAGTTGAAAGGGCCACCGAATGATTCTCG
Data returned: no (0)

Data request: Let us now turn to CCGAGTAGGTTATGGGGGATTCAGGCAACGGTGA
Data returned: no (0)

Data request: Then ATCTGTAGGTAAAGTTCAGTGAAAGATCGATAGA ?
Data returned: no (0)

Data request: Quick one: TCTAGTTGGTCAAAGGTCACACAGTCGAAATGCG
Data returned: yes (1)

Data request: How about this sequence: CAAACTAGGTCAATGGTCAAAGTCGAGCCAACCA
Data returned: no (0)

Data request: Can you check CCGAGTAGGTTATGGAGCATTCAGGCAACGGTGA next?
Data returned: no (0)

Data request: Lookup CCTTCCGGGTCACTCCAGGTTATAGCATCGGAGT
Data returned: yes (1)

Data request: For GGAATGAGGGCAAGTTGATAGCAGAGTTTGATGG then?
Data returned: no (0)

Data request: Could you do the same for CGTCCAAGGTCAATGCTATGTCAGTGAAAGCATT , please?
Data returned: yes (1)

Data request: Quick one: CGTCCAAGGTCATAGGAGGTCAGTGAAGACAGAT
Data returned: yes (1)

Data request: // same read-out, input: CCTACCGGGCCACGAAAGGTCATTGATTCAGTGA
Data returned: yes (1)

Data request: Again, but for CGTCCAAGGTCAAAGGTCAGTGGAGAGATGACGG
Data returned: yes (1)

Data request: Field entry: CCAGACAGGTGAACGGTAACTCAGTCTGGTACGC
Data returned: no (0)

Data request: Moving on to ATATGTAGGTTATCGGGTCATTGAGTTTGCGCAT
Data returned: yes (1)

Data request: Param item: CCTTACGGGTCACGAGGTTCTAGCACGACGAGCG
Data returned: yes (1)

Data request: Another sequence to look at: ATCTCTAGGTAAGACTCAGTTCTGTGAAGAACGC
Data returned: no (0)

Data request: Would you kindly repeat that for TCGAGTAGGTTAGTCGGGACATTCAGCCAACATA ?
Data returned: no (0)

Data request: Now consider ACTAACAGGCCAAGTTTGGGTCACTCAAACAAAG and answer again.
Data returned: no (0)

Data request: Now try CGTCAAAGTTTAACTAAGGTAACGTAAAGCACGC .
Data returned: no (0)

Data request: Similarly, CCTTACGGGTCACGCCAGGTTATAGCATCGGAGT ?
Data returned: yes (1)

Data request: Cool, now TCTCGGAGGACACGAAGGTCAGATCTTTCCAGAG
Data returned: no (0)

Data request: Same thing, different sequence: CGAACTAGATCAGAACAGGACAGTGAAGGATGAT
Data returned: no (0)

Data request: What about this sequence? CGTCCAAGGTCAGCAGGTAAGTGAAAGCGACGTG
Data returned: yes (1)

Data request: Cool, now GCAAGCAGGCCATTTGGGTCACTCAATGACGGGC
Data returned: no (0)

Data request: Try this sequence too: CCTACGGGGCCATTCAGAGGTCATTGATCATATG
Data returned: yes (1)

Data request: // next record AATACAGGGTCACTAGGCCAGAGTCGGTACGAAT
Data returned: yes (1)

Data request: Also need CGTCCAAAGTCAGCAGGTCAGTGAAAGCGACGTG , thanks.
Data returned: no (0)

Data request: What do we get for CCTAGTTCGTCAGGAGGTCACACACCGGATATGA ?
Data returned: yes (1)

Data request: What do you get for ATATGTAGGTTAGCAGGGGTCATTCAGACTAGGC ?
Data returned: yes (1)

Data request: Same question for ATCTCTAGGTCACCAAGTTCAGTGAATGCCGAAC please.
Data returned: yes (1)

Data request: Entry to check: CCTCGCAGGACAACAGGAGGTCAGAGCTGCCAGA
Data returned: no (0)

Data request: Now the sequence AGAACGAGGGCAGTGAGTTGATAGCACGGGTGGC
Data returned: no (0)

Data request: What do we get for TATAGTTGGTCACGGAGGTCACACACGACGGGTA ?
Data returned: yes (1)

Data request: Also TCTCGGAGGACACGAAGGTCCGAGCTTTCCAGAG ?
Data returned: no (0)

Data request: Thanks! And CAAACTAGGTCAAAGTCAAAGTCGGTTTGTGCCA ?
Data returned: no (0)

Data request: One more sequence: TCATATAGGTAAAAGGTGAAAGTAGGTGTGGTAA
Data returned: yes (1)

Data request: And for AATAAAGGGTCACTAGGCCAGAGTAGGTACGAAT ?
Data returned: yes (1)
